Give measured Augmentation % du temps d'apparition par rapport au temps témoin for each item. Keep answers brief.
Tested on: perméabilité des parois des vaisseaux sanguins
assay: Ambrose and De Eds method: time of appearance of Trypan blue at chloroform-irritated skin
Format: in vivo, lapin
studyConditions: voie orale, suspension, 1.000 mg/kg; rabbit; maximum of activity about 6 to 7 h after administration
Kindly write the number and append the unit.

In: Retrieve Augmentation % du temps d'apparition par rapport au temps témoin measured for O=C1c2c(O)cc(O)c(C3C(=O)c4c(O)cc(O)cc4OC3c3ccc(O)c(O)c3)c2OC(c2ccc(O)c(O)c2)C1O (centres unmarked) and print it.
Out: 125%

In: Report Augmentation % du temps d'apparition par rapport au temps témoin for Oc1cc(O)c2c(c1)O[C@H](c1ccc(O)c(O)c1)[C@@H](O)C2 [Catéchine hydrate]
Out: 50%

In: Give the measured Augmentation % du temps d'apparition par rapport au temps témoin for COc1ccc([C@@H]2CC(=O)c3c(O)cc(O[C@@H]4O[C@H](CO[C@@H]5O[C@@H](C)[C@H](O)[C@@H](O)[C@H]5O)[C@@H](O)[C@H](O)[C@H]4O)cc3O2)cc1O
Out: 0%

In: Given C[C@@H]1O[C@@H](OC[C@H]2O[C@@H](Oc3c(-c4ccc(O)c(O)c4)oc4cc(O)cc(O)c4c3=O)[C@H](O)[C@@H](O)[C@@H]2O)[C@H](O)[C@H](O)[C@H]1O , respond with its Augmentation % du temps d'apparition par rapport au temps témoin.
Out: 77%

In: Return reported Augmentation % du temps d'apparition par rapport au temps témoin. Input molecule: O=c1c(O)c(-c2ccc(O)c(O)c2)oc2cc(O)cc(O)c12
Out: 0%
